- TARGET_ENTITY: GABAA receptor α1/β1 (α1 subunit) (Rattus norvegicus, UniProt P15431+P62813, P15431:DEL334-439/P15431:INS334GT/P62813:DEL341-408/P62813:INS341T)
- Construct: purified α1/β1 receptor with M3/M4 loop truncations (α1-LT: Y341-P408 replaced with Thr; β1-LT: K334-K439 replaced with Gly-Thr), C-terminal His8 tag; with GABAA receptor β1 subunit (Gabrb1, P15431)
- Sequence (P62813 with tags, fused parts or gaps DEL341-408/INS341T): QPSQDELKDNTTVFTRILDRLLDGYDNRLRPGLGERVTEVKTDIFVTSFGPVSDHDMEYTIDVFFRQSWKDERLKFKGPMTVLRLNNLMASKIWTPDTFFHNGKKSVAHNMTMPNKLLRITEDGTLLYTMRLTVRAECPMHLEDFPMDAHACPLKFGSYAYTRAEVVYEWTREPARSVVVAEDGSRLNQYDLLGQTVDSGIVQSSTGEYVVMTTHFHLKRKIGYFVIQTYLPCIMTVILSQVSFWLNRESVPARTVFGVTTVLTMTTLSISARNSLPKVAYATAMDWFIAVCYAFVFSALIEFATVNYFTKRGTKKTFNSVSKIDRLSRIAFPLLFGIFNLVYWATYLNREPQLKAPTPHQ
- Sequence (P15431 with tags, fused parts or gaps DEL334-439/INS334GT): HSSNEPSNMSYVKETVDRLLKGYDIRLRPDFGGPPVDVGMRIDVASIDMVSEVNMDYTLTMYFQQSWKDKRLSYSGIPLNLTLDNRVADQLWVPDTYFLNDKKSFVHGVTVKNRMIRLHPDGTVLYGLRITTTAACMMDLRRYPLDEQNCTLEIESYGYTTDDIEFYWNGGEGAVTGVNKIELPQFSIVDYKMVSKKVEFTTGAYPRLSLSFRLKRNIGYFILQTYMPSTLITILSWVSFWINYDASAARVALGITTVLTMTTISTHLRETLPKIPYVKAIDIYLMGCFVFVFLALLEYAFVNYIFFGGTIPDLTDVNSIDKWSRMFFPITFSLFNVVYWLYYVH
- ASSAY_REMARKS: radioligand saturation binding by scintillation proximity assay on purified receptor in L-MNG
MEASURE: Kd (nM)
Response body: numeric value in nM, unit text excluded.

Lookup: What does the data say about its Kd? Entry: NCc1cc(=O)[nH]o1
Found: 24
